// provenance: paper PMC8175851

assay: Pharmacokinetics of AT and NT in healthy volunteers after a single dose of 25 mg amitriptyline
Format: in vivo, human
assaySetup: human, plasma, po, 25 mg, healthy volunteers, single oral 25 mg AT; CYP2C19 activity score 3 (n = 1); mean
quantityMeasured: Tmax (h)

>>> assayresult("CN(C)CCC=C1c2ccccc2CCc2ccccc21")
2
>>> assayresult("CNCCC=C1c2ccccc2CCc2ccccc21")
24.9

----------
assay: Pharmacokinetics of AT and NT in healthy volunteers after a single dose of 25 mg amitriptyline
Assay type: in vivo, human
assaySetup: both sexes, human, plasma, po, 25 mg, healthy volunteers, single oral 25 mg AT; OCT1 genotype *1 / *3 (n 4); mean ± standard deviation; read-out: AUC48h
quantityMeasured: AUC(0-t)

>>> assayresult("CNCCC=C1c2ccccc2CCc2ccccc21")
"78 ng·h/mL"

----------
assay: Pharmacokinetics of AT and NT in healthy volunteers after a single dose of 25 mg amitriptyline
Assay type: in vivo, human
assaySetup: both sexes, human, plasma, po, 25 mg, healthy volunteers, single oral 25 mg AT; CYP2D6 activity 2 (n = 11); mean
Description: In order to enrich the study sample with the less frequent functionally deficient OCT1 variants, participants were selected based on OCT1 genotype from an internal database at the Institute of Clinical Pharmacology of the University Medical Center Göttingen. […] The lower limit of quantification was 0.5 ng/ml for AT and 0.1 ng/ml for NT. […] Pharmacokinetic parameters were calculated by non-compartmental analysis using Phoenix 64 WinNonlin version 6.3 (Certara Inc., Princeton, NJ, United States). […]
quantityMeasured: Tmax (h)

>>> assayresult("CN(C)CCC=C1c2ccccc2CCc2ccccc21")
3.4
>>> assayresult("CNCCC=C1c2ccccc2CCc2ccccc21")
7.7

----------
assay: Pharmacokinetics of AT and NT in healthy volunteers after a single dose of 25 mg amitriptyline
Assay type: in vivo, human
assaySetup: both sexes, human, plasma, po, 25 mg, healthy volunteers, single oral 25 mg AT, plasma; CYP2D6 activity 1 (n = 10); mean; read-out: AUCinf
quantityMeasured: AUC(0-inf)

>>> assayresult("CN(C)CCC=C1c2ccccc2CCc2ccccc21")
"251 ng·h/mL"

----------
assay: Pharmacokinetics of AT and NT in healthy volunteers after a single dose of 25 mg amitriptyline
Format: in vivo, human
assaySetup: both sexes, human, plasma, po, 25 mg, healthy volunteers, single oral 25 mg AT, plasma; CYP2D6 activity 0 (n = 3); mean; read-out: AUCinf
quantityMeasured: AUC(0-inf)

>>> assayresult("CN(C)CCC=C1c2ccccc2CCc2ccccc21 [Amitriptyline, amitriptyline]")
"311 ng·h/mL"

----------
assay: Pharmacokinetics of AT and NT in healthy volunteers after a single dose of 25 mg amitriptyline
Format: in vivo, human
assaySetup: both sexes, human, plasma, po, 25 mg, healthy volunteers, single oral 25 mg AT; OCT1 genotype *2 / *5 (n 1); read-out: AUCinf
quantityMeasured: AUC(0-inf) (ng·h/mL)

>>> assayresult("CN(C)CCC=C1c2ccccc2CCc2ccccc21")
298

----------
assay: Pharmacokinetics of AT and NT in healthy volunteers after a single dose of 25 mg amitriptyline
Assay type: in vivo, human
assaySetup: both sexes, human, plasma, po, 25 mg, healthy volunteers, single oral 25 mg AT, plasma; CYP2C19 activity score 1 (n = 5); mean; read-out: AUC48h
Protocol: In order to enrich the study sample with the less frequent functionally deficient OCT1 variants, participants were selected based on OCT1 genotype from an internal database at the Institute of Clinical Pharmacology of the University Medical Center Göttingen. […] The lower limit of quantification was 0.5 ng/ml for AT and 0.1 ng/ml for NT. […] Pharmacokinetic parameters were calculated by non-compartmental analysis using Phoenix 64 WinNonlin version 6.3 (Certara Inc., Princeton, NJ, United States). […]
Here, each record is paired with measured AUC(0-t) data.
quantityMeasured: AUC(0-t)

>>> assayresult("CN(C)CCC=C1c2ccccc2CCc2ccccc21")
"183 ng·h/mL"
>>> assayresult("CNCCC=C1c2ccccc2CCc2ccccc21")
"69.4 ng·h/mL"
